Biological target: BRD4 (BD1+BD2) bromodomain (Homo sapiens (Human), UniProt O60885)
Assay: BRD4 binding inhibition (AlphaScreen, GST-BRD4 vs tetraacetylated histone H4 peptide)
Settings: GST-BRD4 (BD1+BD2) / biotinylated acetyl-histone H4 (Lys5,8,12,16) peptide; read-out: IC50, BRD4 binding inhibition
Recorded IC50, one value per entry.

{"mol": "COCCOc1ccc2c(c1)nc(NCCCCNC(=O)C(C)(C)OC(C)=O)c1nnc(C)n12", "readout type": "IC50", "result": "≤ 0.05 µM"}
{"mol": "COc1ccc2c(c1)nc(NCCCCNC(=O)OCC(C)C)c1nnc(C)n12", "readout type": "IC50", "result": "≤ 0.05 µM"}
{"mol": "COc1ccc2c(c1)nc(NCCCCNC(=O)[C@@H](O)C(C)C)c1nnc(C)n12", "readout type": "IC50", "result": "≤ 0.01 µM"}

Challenge: // IC50 lookup, key: `COc1ccc2c(c1)nc(NCCCCNC(=O)C=C(C)C)c1nnc(C)n12`
Response given: ≤ 0.01 µM

Challenge: Reported IC50, molecule `COc1cc2nc(NCCCCNC(=O)OC3CCCC3)c3nnc(C)n3c2cc1OC` : ____
Response given: ≤ 0.05 µM

Challenge: Recorded IC50 of `COc1cc2nc(NCCCCNC(=O)OC(C)C)c3nnc(C)n3c2cc1OC` , please.
Response given: ≤ 0.05 µM

Challenge: Fill in the blank: the reported IC50 of `CCc1nnc2c(NCCCCNC(=O)CC(C)C)nc3cc(OC)c(OC)cc3n12` is ____.
Response given: ≤ 0.05 µM

Challenge: Sample `Cc1nnc2c(NCCCCNC(=O)Cc3cccs3)nc3cc4c(cc3n12)OCCO4` — what was its IC50?
Response given: ≤ 0.05 µM

----------
Target: BRD4 (BD1+BD2) bromodomain (Homo sapiens (Human), UniProt O60885)
Assay: BRD4 binding inhibition (AlphaScreen, GST-BRD4 vs tetraacetylated histone H4 peptide)
Details: GST-BRD4 (BD1+BD2) vs biotinylated acetyl-histone H4 peptide, AlphaScreen; read-out: BRD4 IC50
readout type: IC50 (nM)

{"compound": "COc1cc(C(F)(F)F)cc2c1nc(NCCCCNC(=O)OC(C)C)c1nnc(C)n12", "value unit": "nM", "numeric result": 38}
{"compound": "COCCOc1ccc2c(c1)nc(NCCCCNC(=O)c1ccccc1)c1nnc(C)n12", "value unit": "nM", "numeric result": 13}
{"compound": "Cc1nnc2c(NCCCCNC(=O)c3ccccc3Cl)nc3cc(OC(F)(F)F)ccc3n12", "value unit": "nM", "numeric result": 27}
{"compound": "CCOc1cc2nc(NCCCCNC(=O)OCC(C)C)c3nnc(C)n3c2cc1OCC", "value unit": "nM", "numeric result": 2}

(1) Cc1noc(C)c1-c1ccc2c(c1)nc(NCCCCNC(=O)OC(C)(C)C)c1nnc(C)n12
(2) CCCOC(=O)N[C@H](C(=O)NCCCCNc1nc2cc(OC)ccc2n2c(C)nnc12)C(C)C
Challenge: Identify the entry with the larger IC50. Options: 1 and 2 To answer, give the label that identifies your chosen option.
Response given: 2

(A) COCCOc1cc2nc(NCCCCNC(=O)C(C)(C)C)c3nnc(C)n3c2cc1OCCOC
(B) Cc1nnc2c(NCCCCNC(=O)c3ccccc3)nc3ccc(C(=O)NCCN(C)C)cc3n12
(C) CCCn1c(-c2ccc3c(c2)nc(NCCCCNC(=O)CC(C)C)c2nnc(C)n23)nc2ccccc21
(D) Cc1nnc2c(NCCCCNC(=O)C(C)(C)C)nc3cc(-c4nc5ccccc5n4C)ccc3n12
(E) COc1ccc2nc(NCCCCNC(=O)OC(C)(C)C)c3nnc(C)n3c2c1
Challenge: Sequence the entries by IC50, beginning with the highest number. Use the labels to give the ranking in the order requested.
Response given: B, E, A, D, C

----------
Target: BRD4 (BD1+BD2) bromodomain (Homo sapiens (Human), UniProt O60885)
Experiment: BRD4 binding inhibition (AlphaScreen, GST-BRD4 vs tetraacetylated histone H4 peptide)
Conditions: GST-BRD4 (BD1+BD2) / biotinylated acetyl-histone H4 (Lys5,8,12,16) peptide; read-out: IC50, BRD4 binding inhibition
readout type: IC50

Take a look at these entries with their results.
{"compound": "COc1ccc2c(c1)nc(NCCCCNC(=O)C(NC(=O)OC(C)(C)C)C(C)C)c1nnc(C)n12 (centres unmarked)", "system name": "BRD4 (BD1+BD2) bromodomain (Homo sapiens (Human), UniProt O60885)", "IC50": "≤ 50 nM"}
{"compound": "COCCOc1ccc2c(c1)nc(NCCCCNC(=O)[C@H](O)C(C)C)c1nnc(C)n12", "system name": "BRD4 (BD1+BD2) bromodomain (Homo sapiens (Human), UniProt O60885)", "IC50": "≤ 10 nM"}
{"compound": "COCCOc1ccc2c(c1)nc(NCCCCNC(=O)OC(C)(C)C)c1nnc(C)n12", "system name": "BRD4 (BD1+BD2) bromodomain (Homo sapiens (Human), UniProt O60885)", "IC50": "≤ 50 nM"}
{"compound": "CCCOC(=O)NCCCCNc1nc2cc(OCCOC)ccc2n2c(C)nnc12", "system name": "BRD4 (BD1+BD2) bromodomain (Homo sapiens (Human), UniProt O60885)", "IC50": "≤ 10 nM"}

Challenge: Recorded IC50 of `Cc1nnc2c(NCCCCNC(=O)c3ccccc3Cl)nc3cc(OC(C)C)ccc3n12` , please.
Response given: ≤ 50 nM

Challenge: Could you tell me which IC50 is on file for `CCCOC(=O)N[C@H](C(=O)NCCCCNc1nc2cc(OCCOC)ccc2n2c(C)nnc12)C(C)C` ?
Response given: ≤ 10 nM

Challenge: Endpoint output: IC50 of CCC(C)CC(=O)NCCCCNc1nc2c(OC)c(OC)c(OC)cc2n2c(C)nnc12 (centres unmarked) . Value?
Response given: ≤ 50 nM

Challenge: For the compound shown here, `COc1ccc2c(nc(NCCCCNC(=O)Cc3cccs3)c3nnc(C)n32)c1Cl` , give the reported IC50.
Response given: ≤ 50 nM

----------
Tested on: thymus cancer cells (Ty-82 cells)
Assay: Cytotoxicity to thymus cancer cells (Ty-82 cells), WST-1
Conditions: Homo sapiens, TY82, 72 h, read-out: Ty-82 Cytotoxicity IC50
readout type: pIC50
Scale explanation: pIC50 corresponds to minus log10 of a concentration expressed in moles per litre.

These solved cases illustrate the format of a correct answer.
{"compound": "C=CCOC(=O)NCCCCNc1nc2cc(OC)c(OC)cc2n2c(C)nnc12 [Example 65]", "pIC50": 6.43}
{"compound": "CC(=O)Nc1ccc2c(c1)nc(NCCCCNC(=O)C(C)(C)C)c1nnc(C)n12 [Example 250]", "pIC50": 6.52}
{"compound": "COc1ccc2nc(NCCCCNC(=O)c3ccc(C)nc3Cl)c3nnc(C)n3c2c1 [Example 129]", "pIC50": 6.08}
{"compound": "COc1cc2nc(NCCCCNC(=O)NC(C)(C)C)c3nnc(C)n3c2cc1OC [Example 88]", "pIC50": 6.01}
{"compound": "COc1cc2nc(NCCCCNC(=O)C(C)(C)C)c3nnc(C)n3c2cc1C [Example 466]", "pIC50": 6.47}

Challenge: # pIC50 lookup, item COCCOc1cc2nc(NCCCCNC(=O)c3ccccc3Cl)c3nnc(C)n3c2cc1OCCOC [Example 171]
Response given: 6.24

Challenge: Suppose we examine the compound COc1cc2nc(NCCCCNC(=O)c3ccc([N+](=O)[O-])cc3)c3nnc(C)n3c2cc1OC [Example 101] ; what pIC50 value has been reported?
Response given: 6.06

Challenge: Please report the recorded pIC50 for COc1ccc2c(c1)nc(NCCCCNC(=O)OCC(C)C)c1nnc(C)n12 [Example 279] .
Response given: 6.92

----------
Biological target: BRD4 (BD1+BD2) bromodomain (Homo sapiens (Human))
Assay: BRD4 binding inhibition (AlphaScreen, GST-BRD4 vs tetraacetylated histone H4 peptide)
Details: GST-BRD4 (BD1+BD2) vs biotinylated acetyl-histone H4 peptide, AlphaScreen; read-out: BRD4 IC50
pIC50: −log10 of the molar value.
readout type: pIC50

{"mol": "COc1ccc2c(c1)nc(NCCCCC(=O)NCC(C)C)c1nnc(C)n12", "numeric result": 7.96}

(a) COCCOc1ccc2c(c1)nc(NCCCCNC(=O)[C@H](O)C(C)C)c1nnc(C)n12
(b) Cc1nnc2c(NCCCCNC(=O)Nc3ccccc3)nc3ccc(F)cc3n12
(c) Cc1nnc2c(NCCCCNC(=O)NC(C)C)nc3cc(-c4nc5ccccc5n4C)ccc3n12
Challenge: Thanks in advance: please rank these 3 entries by pIC50, highest to lowest. Kindly provide the labels arranged according to the requested ordering.
Response given: a, c, b
(a: 8.22, c: 7.82, b: 7.22)
